Reported z-score values for the following compounds.
Assay: osmotic lysis modulators in infected erythrocytes, primary screen, PSAC antagonist project, cell-based, P. falciparum Indochina, OD700, 3 h (AID 1156)
Details: higher = more signal, called active from +8 up or from −8 down
# answer = number (no unit)

// known answers, use as guide
                                   compound  property_measured  measured_result
0  COc1ccc(NN2C(C(O)c3ccc(F)cc3)C=CC3C(=O)N(C4CCCCC4)C(=O)C32)cc1 (centres undefined)            z-score             0.37
1  CCOC(=O)C1=CC[C@@H](c2ccccc2)N(S(=O)(=O)c2ccc(C)cc2)[C@@H]1C#N            z-score           0.0758
2  COC(=O)[C@@]1(Cc2ccc(F)cc2)[C@H]2c3cc(C(=O)N(C)C)n(Cc4ccc(C(F)(F)F)nc4)c3C[C@H]2CN1C(=O)c1ccccc1            z-score            0.893

Now for another entry.
So what does the record say about z-score for COc1cc(CO)cc(I)c1O[C@H]1C=C(C(=O)NCCO)C[C@@H](N(CCN2CCOCC2)C(=O)C2CCCO2)[C@@H]1O (some centres undefined) ? 0.483
